Biological target: FGFR1 (Homo sapiens)
Construct: made in house; host or cells: E. coli (BL21-derived), T7 phage
Sequence (P11362 22-822): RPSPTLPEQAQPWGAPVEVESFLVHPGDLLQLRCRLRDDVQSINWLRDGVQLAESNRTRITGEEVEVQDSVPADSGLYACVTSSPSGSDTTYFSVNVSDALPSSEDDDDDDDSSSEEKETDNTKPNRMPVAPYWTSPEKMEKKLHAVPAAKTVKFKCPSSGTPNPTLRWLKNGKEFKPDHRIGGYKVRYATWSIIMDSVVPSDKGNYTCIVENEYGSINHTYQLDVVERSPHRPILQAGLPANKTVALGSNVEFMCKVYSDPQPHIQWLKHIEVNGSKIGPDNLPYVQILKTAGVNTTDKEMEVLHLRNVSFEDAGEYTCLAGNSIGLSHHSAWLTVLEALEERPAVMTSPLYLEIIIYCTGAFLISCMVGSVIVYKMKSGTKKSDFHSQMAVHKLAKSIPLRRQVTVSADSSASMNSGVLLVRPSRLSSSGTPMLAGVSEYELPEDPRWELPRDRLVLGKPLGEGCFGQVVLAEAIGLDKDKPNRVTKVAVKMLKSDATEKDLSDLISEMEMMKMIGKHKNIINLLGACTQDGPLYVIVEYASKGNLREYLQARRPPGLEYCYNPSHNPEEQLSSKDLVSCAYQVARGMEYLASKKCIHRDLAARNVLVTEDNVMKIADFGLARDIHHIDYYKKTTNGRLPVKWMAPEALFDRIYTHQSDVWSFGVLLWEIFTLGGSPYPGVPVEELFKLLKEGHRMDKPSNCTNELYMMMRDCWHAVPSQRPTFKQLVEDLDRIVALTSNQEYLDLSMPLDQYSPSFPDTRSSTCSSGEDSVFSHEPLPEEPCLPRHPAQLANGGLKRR
Assay: Kinase binding assay (kinase-tagged T7 phage, affinity beads, qPCR), Kd
Details: read-out: FGFR1 (Kd nM)
quantity-name: Kd

Consider the following illustrative entries.
>>> assay_value("C[C@@H](Oc1ccc2[nH]nc(-c3ccc(N4CC(C)(NCC(F)F)C4)nc3)c2c1)c1c(Cl)cncc1Cl [Example 125]")
"1 to 50 nM"
>>> assay_value("C[C@@H](Oc1ccc2[nH]nc(-c3cnc(N4CC(C)(N5CCS(=O)(=O)CC5)C4)c(F)c3)c2c1)c1c(Cl)cncc1Cl [Example 167]")
"1 to 50 nM"
>>> assay_value("C[C@@H](Oc1ccc2[nH]nc(-c3cnc(N4CC(C)(CN5CCCC5)C4)c(F)c3)c2c1F)c1c(Cl)cncc1Cl [Example 185]")
"300 to 1000 nM"

Kd for C[C@@H](Oc1ccc2[nH]nc(-c3cnc(N4CC(C)(CP(C)(C)=O)C4)c(F)c3)c2c1F)c1c(Cl)cncc1Cl [Example 172] is 300 to 1000 nM

Lab book: Kd of COP(=O)(CC1(C)CN(c2ccc(-c3n[nH]c4ccc(O[C@H](C)c5c(Cl)cncc5Cl)cc34)cn2)C1)OC [Example 214] noted as 1 to 50 nM

Value of measured Kd for the entry CCC(C)C1(N)CN(c2ncc(-c3n[nH]c4ccc(O[C@H](C)c5c(Cl)cncc5Cl)cc34)cc2F)C1 (some centres unmarked) [Example 280] : 1 to 50 nM
